Some compounds, each annotated with its measured IC50.
Target: human rec ACSS2 (Homo sapiens)
Construct: myc (C)
Sequence (Q9NR19 whole entry): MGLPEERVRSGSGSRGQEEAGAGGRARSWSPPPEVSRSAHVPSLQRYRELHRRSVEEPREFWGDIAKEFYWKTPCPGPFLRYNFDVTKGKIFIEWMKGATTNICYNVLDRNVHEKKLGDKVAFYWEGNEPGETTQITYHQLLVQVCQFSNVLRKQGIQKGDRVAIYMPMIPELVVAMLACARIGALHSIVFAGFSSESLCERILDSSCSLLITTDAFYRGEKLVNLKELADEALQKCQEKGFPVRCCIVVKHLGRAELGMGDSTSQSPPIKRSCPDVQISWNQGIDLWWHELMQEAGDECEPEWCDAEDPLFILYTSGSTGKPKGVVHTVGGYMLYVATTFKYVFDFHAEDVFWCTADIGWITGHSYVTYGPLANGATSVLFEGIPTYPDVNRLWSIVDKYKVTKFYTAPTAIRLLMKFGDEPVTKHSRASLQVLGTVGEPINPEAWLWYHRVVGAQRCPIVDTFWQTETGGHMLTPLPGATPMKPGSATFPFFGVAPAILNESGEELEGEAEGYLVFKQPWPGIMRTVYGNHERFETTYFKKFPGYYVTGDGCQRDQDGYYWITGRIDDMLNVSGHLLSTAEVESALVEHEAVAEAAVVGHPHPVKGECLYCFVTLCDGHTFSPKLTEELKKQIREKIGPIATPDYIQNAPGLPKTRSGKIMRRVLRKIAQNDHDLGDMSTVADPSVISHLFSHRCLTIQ
Assay: Biochemical activity ACSS2 assay (AMP-Glo)
Details: human recombinant ACSS2, AMP-Glo, 180 min at 37° C.

Field: example entries. Status: answers known.
INSERT INTO assay_data (compound, property, measurement) VALUES
  ('CCn1cnc(NC(=O)c2cc3c(nc2OC)nc(C(O)(c2ccccc2)c2ccccc2)n3CC)n1', 'IC50', '1 to 10 nM'),
  ('CCn1cnc(NC(=O)c2cc3c(nc2OC)nc(C(O)(c2ccccc2)c2ccccc2)n3CCO)n1', 'IC50', '1 to 10 nM'),
  ('CCn1cc(NC(=O)c2cnc3nc(C(O)(c4ccccc4)c4ccccc4)n(CC)c3c2)cn1', 'IC50', '10 to 100 nM'),
  ('CCn1cc(NC(=O)c2cc3c(nc2C)nc(C(O)(c2ccccc2F)c2ccccc2F)n3CC)cn1', 'IC50', '1 to 10 nM'),
  ('CCc1c(C(O)(c2ccccc2F)c2ccccc2F)nn2cc(Cl)c(C(=O)Nc3cnn(CC)c3)cc12', 'IC50', '1 to 10 nM'),
  ('CCn1cnc(NC(=O)c2cc3c(nc2OC)nc(C(O)(c2ccccc2)c2cccs2)n3CC)n1 (racemic)', 'IC50', '1 to 10 nM');

Let's switch to this compound now.
Prompt line: Recall the recorded IC50 for `CCn1c(C(O)(c2ccccc2)c2ccccc2)nc2nc(OC)c(C(=O)Nc3ncn(CCN)n3)cc21` with human rec ACSS2 (Homo sapiens) and state it.
Response line: 10 to 100 nM

====

Some molecules, each annotated with its measured pIC50.
Molecular target: ACSS2 (Homo sapiens, UniProt Q9NR19)
Construct: endogenous fatty acid synthesis activity in the human HCT-15 cancer cell line; endogenous in cells; host or cells: HCT-15
Experiment: Cellular assay of 14C acetate incorporation into histones (IC50 ACSS2 cellular histone)
Format: cell-based
Details: HCT-15 cells
pIC50: −log10 of the molar value.

INSERT INTO assay_data (molecule, property, measurement) VALUES
  ('CCn1cnc(NC(=O)c2cc3c(nc2OC)nc(C(O)(c2ccccc2)c2ccccn2)n3CC)n1 (racemic) [Compound 69]', 'pIC50', '9.00 to 11.00'),
  ('CCn1c(C(O)(c2ccccc2)c2ccccc2)nc2ccc(C(=O)NC[C@@H](C)O)cc21 [Reference Compound, reference compound]', 'pIC50', '9.00 to 11.00'),
  ('CCn1cc(NC(=O)c2cc3c(nc2Cl)nc(C(O)(c2ccccc2F)c2ccccc2F)n3CC)cn1', 'pIC50', '9.00 to 11.00');

Prompt line: Field request: pIC50 | item: `CCn1cc(NC(=O)c2cc3c(nc2OC)nc(C(O)(c2ccccc2)c2ccccc2)n3CC)cn1`
Response line: 8.00 to 9.00

Prompt line: Note, next up: `CCn1cnc(NC(=O)c2cc3c(nc2F)nc(C(O)(c2ccccc2F)c2ccccc2F)n3CC)n1`
Response line: 9.00 to 11.00

Prompt line: Note, next up: `CCc1c(C(O)(c2ccccc2)c2ccccc2)nc2cc(Cl)c(C(=O)Nc3ncn(CC)n3)cn12`
Response line: 8.00 to 9.00

Prompt line: Note, next up: `CCc1c(C(O)(c2ccccc2)c2ccccc2)nn2cc(OC)c(C(=O)Nc3cnn(CC)c3)cc12`
Response line: 8.00 to 9.00

Prompt line: Note, next up: `CCn1cnc(NC(=O)c2cc3c(nc2OC)nc(C(O)(c2ccccc2)c2ccccc2)n3CC)n1`
Response line: 9.00 to 11.00

Prompt line: Note, next up: `CCn1cnc(NC(=O)c2cnc3nc(C(O)(c4ccccc4)c4ccccc4)n(CC)c3c2)n1`
Response line: 5.00 to 7.00

Prompt line: Note, next up: `CCn1cnc(NC(=O)c2cc3c(nc2OC)nc(C(O)(c2ccccc2)c2ccccc2)n3CCOC)n1`
Response line: 8.00 to 9.00

Prompt line: Note, next up: CCn1cnc(NC(=O)c2cc3c(nc2OC)nc(C(O)(c2ccccc2)c2ccccn2)n3CC)n1 (single isomer, unassigned) [Compound 53]
Response line: 9.00 to 11.00

Prompt line: Note, next up: CCn1cnc(NC(=O)c2cc3c(nc2OC)nc(C(O)(c2ccccc2)c2ccc(OC(F)F)cc2F)n3CC)n1 (racemic)
Response line: 9.00 to 11.00

Prompt line: Note, next up: `CCn1cc(NC(=O)c2cnc3nc(C(O)(c4ccccc4)c4ccccc4)n(C)c3c2)cn1`
Response line: 7.00 to 8.00

Prompt line: Note, next up: `CCc1c(C(O)(c2ccccc2)c2ccccc2)nc2cc(OC)c(C(=O)Nc3cnn(CC)c3)cn12`
Response line: 8.00 to 9.00

Prompt line: Note, next up: CCn1cnc(NC(=O)c2cc3c(nc2OC)nc(C(O)(c2ccccc2)c2nccs2)n3CC)n1 (racemic)
Response line: 8.00 to 9.00

Prompt line: Note, next up: `CCn1cc(NC(=O)c2cnc3nc(C(O)(c4ccccc4F)c4ccccc4F)n(CC)c3c2)cn1`
Response line: 7.00 to 8.00

Prompt line: Note, next up: CCc1c(C(O)(c2ccccc2)c2ccccn2)nc2cc(OC)c(C(=O)Nc3ncn(CC)n3)cn12 (racemic) [Compound 16]
Response line: 8.00 to 9.00

Prompt line: Note, next up: `CCc1c(C(O)(c2ccccc2)c2ccccc2)nn2cc(Cl)c(C(=O)Nc3cnn(CC)c3)cc12`
Response line: 8.00 to 9.00

Prompt line: Note, next up: CCn1cnc(NC(=O)c2cc3c(nc2OC)nc(C(O)(c2ccccc2)c2ccncn2)n3CC)n1 (racemic)
Response line: 8.00 to 9.00

Prompt line: Note, next up: `CCn1cc(NC(=O)c2cc3c(nc2Cl)nc(C(O)(c2ccccc2)c2ccccc2)n3CC)cn1`
Response line: 8.00 to 9.00

Prompt line: Note, next up: `CCn1cnc(NC(=O)c2cc3c(nc2OC)nc(C(O)(c2ccccc2C)c2ccccc2C)n3CC)n1`
Response line: 7.00 to 8.00

Prompt line: Note, next up: `CCc1c(C(O)(c2ccccc2)c2ccccc2)nn2ccc(C(=O)Nc3ncn(CC)n3)cc12`
Response line: 9.00 to 11.00
